Target: Cytochrome P450 3A4 (Homo sapiens) (UniProt P08684)
Sequence (P08684 whole entry, looked up): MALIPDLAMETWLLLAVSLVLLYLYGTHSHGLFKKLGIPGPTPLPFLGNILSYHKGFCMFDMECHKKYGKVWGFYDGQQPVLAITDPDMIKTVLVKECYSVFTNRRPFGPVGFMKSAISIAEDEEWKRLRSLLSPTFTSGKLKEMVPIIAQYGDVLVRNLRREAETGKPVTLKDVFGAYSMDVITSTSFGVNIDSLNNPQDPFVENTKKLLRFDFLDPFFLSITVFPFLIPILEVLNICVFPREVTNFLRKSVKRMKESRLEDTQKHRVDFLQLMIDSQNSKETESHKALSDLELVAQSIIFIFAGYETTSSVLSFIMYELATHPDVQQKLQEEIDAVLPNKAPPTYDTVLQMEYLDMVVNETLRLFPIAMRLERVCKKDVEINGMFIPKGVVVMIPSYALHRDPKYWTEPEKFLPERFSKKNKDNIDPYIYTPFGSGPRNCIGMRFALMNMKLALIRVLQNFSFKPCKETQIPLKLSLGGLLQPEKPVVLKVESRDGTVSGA
Test: qHTS Assay for Inhibitors and Substrates of Cytochrome P450 3A4 (AID 884); also: potency is read from the fitted curve at half-maximal effect; nearly all actives have a fitted effect of over 50% in size
Conditions: recombinant CYP3A4, Luciferin-PPXE luminescence; series mostly up to 57.1 µM
Results filed as inconclusive are left out. Activity calls are given as the source filed them. Calls follow the shape of the dose curve; as a rule, active = well fitted inhibition curve with a large enough effect; inconclusive = small, poorly fitted or top-dose-only effect; inactive = no such curve, though single readings can be large or run the other way.
Endpoint: Potency

In [3]: df
Out[3]:
                                   molecule  endpoint   reported_result
0  CCC1=C(OC(=O)N(CC)CC)N2C(=O)OC(=NCCOC)[C@]2(Cc2ccccc2)[C@H]2C1=CC[C@H]1C(=O)N(CC)C(=O)[C@H]12   Potency  5.01 µM (active)

// recorded Potency for COC(=O)c1cccc(C23CC4(C2)[C@H](CN(C)[C@@H]4c2ccccc2)C3c2ccc(C(F)(F)F)cc2)c1 (some centres undefined) : 12.6 µM (active)

// Potency lookup, molecule = COC(=O)c1ccc(C(NC(=O)OCc2ccccc2)/C(F)=C/[C@@H](C)C(=O)NCCc2c[nH]c3ccc(OC)cc23)cc1 (some centres undefined) , result: 1.26 µM (active)

Notebook: CCOC(=O)OCC1OC(C#Cc2ccccc2)C=CC1OC(=O)OCC (centres undefined) , Potency read as 3.98 µM (active)

Kindly note the recorded Potency for CC(=O)OC1CC(OC(C)=O)[C@]2(C)C(CC(OC(C)=O)[C@@]3(C)C4=CC(=O)OC(c5ccoc5)[C@]4(C)CCC32)C1(C)C (some centres undefined) , which is 10 µM (active)

Sure, the documented Potency for CC(=O)OCC1OC(Oc2cc(OC(C)=O)c3c(=O)cc(-c4ccc(OC(C)=O)c(OC(C)=O)c4)oc3c2)C(OC(C)=O)C(OC(C)=O)C1OC(C)=O (centres undefined) is 3.98 µM (active)

// Potency lookup, molecule = COC(=O)c1ccc(C(NC(=O)OCc2ccccc2)/C(I)=C/[C@@H](C)C(=O)Nc2ccccc2)cc1 (some centres undefined) , result: 2 µM (active)

Per the records, this molecule ( COc1cccc(/C=C/C2=CC3(C)CC2(C)C(c2cccc(OC)c2)CC3=O)c1 (centres undefined) ) has Potency equal to 3.98 µM (active)

// CCCCC#CC1C=CC(Oc2ccc(C(=O)OC)cc2)C(COC(=O)OCC)O1 (centres undefined) : Potency value = 3.98 µM (active)

###

# key: entry, value: activity change % (negative = inhibition)
Target: Thyroid hormone receptor beta (Homo sapiens)
Test: qHTS assay for small molecule antagonists of thyroid hormone receptor beta signaling (AID 588547);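 also: cells stimulated with 0.4 nM T3 agonist during compound exposure; % is scaled to controls: 0 for no effect and ±100 for the full control effect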
Conditions: TR-UAS-bla HEK293, beta-lactamase ratio, antagonist mode, 18 h
Results filed as inconclusive are left out.
Express the result in % but write the number alone.

Solved entries (count: 5):
In [3]: df
Out[3]:
                                   compound  measurement_unit  reported_result
0  C/C(=C\C(C)CC(C)CC(C)C)C1CC(=O)OC1=O (stereo unspecified)                 %            0.311
1              CCOc1ccc(NC(=O)OC(C)C)cc1OCC                 %              -11
2          CCOC(=O)CC(O)(CC(=O)OCC)C(=O)OCC                 %               13
3             CC(C)(C)c1ccc(O)c(C(C)(C)C)c1                 %             5.44
4                    CCCCNS(=O)(=O)c1ccccc1                 %            -5.57

Entry CC(COc1ccc(C(C)(C)C)cc1)OS(=O)OCCCl (stereo unspecified) , tested on Thyroid hormone receptor beta (Homo sapiens), has a reported activity change % (negative = inhibition) of -14.9

Thyroid hormone receptor beta (Homo sapiens) data for `CCCCOCCOCCOCCO` ; its activity change % (negative = inhibition): -0.828

The value of activity change % (negative = inhibition) recorded for `COC(=O)c1cccc(C(=O)OC)c1` when tested on Thyroid hormone receptor beta (Homo sapiens) reads 1.41

The compound `C=CC(=O)OCCOc1ccccc1` , when measured on Thyroid hormone receptor beta (Homo sapiens), yielded activity change % (negative = inhibition) of -3.52

Per the reported Thyroid hormone receptor beta (Homo sapiens) data, `O=C(OCCOCCOC(=O)c1ccccc1)c1ccccc1` has activity change % (negative = inhibition) of 0.94

Here `CC1=CC(=O)CC(C)(C)C1` was tested on Thyroid hormone receptor beta (Homo sapiens), and its activity change % (negative = inhibition) came to 1.58
